# MEASURED ON: LXRα (Homo sapiens, UniProt Q13133)
# Sequence (Q13133 whole entry): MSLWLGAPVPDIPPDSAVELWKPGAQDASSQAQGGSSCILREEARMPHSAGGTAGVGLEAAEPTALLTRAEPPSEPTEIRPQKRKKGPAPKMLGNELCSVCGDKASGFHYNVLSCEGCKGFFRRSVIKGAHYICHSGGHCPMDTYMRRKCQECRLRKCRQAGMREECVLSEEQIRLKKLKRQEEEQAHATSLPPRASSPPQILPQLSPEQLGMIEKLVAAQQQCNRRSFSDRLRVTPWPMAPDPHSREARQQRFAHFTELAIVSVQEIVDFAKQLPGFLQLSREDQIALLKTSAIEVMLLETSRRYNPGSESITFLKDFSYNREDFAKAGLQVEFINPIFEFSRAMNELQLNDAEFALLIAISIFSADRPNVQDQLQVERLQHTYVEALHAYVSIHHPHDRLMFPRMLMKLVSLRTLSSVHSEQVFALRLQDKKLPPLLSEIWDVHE
# Sequence (P19793 whole entry partner): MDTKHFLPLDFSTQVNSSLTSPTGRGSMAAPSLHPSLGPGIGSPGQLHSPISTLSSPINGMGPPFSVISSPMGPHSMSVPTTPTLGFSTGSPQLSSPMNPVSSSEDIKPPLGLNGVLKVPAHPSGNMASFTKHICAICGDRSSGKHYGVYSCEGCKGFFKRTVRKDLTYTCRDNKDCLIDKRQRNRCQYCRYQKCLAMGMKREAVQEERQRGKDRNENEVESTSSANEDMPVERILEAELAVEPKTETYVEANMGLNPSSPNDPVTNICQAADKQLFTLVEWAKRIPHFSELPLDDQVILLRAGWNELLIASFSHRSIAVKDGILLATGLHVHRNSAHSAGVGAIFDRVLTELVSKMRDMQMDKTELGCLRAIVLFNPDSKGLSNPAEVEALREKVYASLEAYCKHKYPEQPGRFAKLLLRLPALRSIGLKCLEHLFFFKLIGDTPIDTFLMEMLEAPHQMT
# PROCEDURE SUMMARY: LXR/LXRE co-transfection assay (luciferase reporter, CV-1 cells)
# REPORTED CONDITIONS: CV-1 cells, agonism
VALUE TYPE: EC50 (nM)

COMPOUND STRUCTURE STRING: N#Cc1c(C(F)(F)F)cc(-c2cccs2)n(Cc2ccccc2)c1=O
VALUE TYPE: EC50
REPORTED MEASUREMENT: 1600

COMPOUND STRUCTURE STRING: N#Cc1c(C(F)(F)F)cc(-c2ccccc2)n(N=C2CCCCC2)c1=O
VALUE TYPE: EC50
REPORTED MEASUREMENT: 3400

[I] Cc1ccc(Cn2c(-c3ccccc3)cc(C(F)(F)F)c(C#N)c2=O)o1
[II] COc1cccc(-c2cc(C(F)(F)F)c(C#N)c(=O)n2Cc2ccccc2)c1
Out of I and II , name the one with the higher EC50. Answer with the label corresponding to your selection. II
(II: 1200 nM, I: 580 nM)

* * *

# MEASURED ON: LXRβ (Homo sapiens, UniProt P55055)
# Sequence (P55055 whole entry, one chain of several): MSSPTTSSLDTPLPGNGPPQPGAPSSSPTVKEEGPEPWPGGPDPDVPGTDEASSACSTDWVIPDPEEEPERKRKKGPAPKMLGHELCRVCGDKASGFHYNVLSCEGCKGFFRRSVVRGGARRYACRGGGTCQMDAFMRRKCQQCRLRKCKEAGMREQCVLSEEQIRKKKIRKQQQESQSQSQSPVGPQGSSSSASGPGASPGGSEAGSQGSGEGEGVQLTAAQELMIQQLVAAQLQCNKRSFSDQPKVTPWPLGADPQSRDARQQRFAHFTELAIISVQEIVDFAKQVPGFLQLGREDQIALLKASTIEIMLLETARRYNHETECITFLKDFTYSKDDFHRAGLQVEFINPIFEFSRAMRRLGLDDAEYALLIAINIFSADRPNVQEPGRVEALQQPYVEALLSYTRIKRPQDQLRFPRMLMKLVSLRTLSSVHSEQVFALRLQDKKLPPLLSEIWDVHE
# PROCEDURE SUMMARY: LXR/LXRE co-transfection assay (luciferase reporter, CV-1 cells)
# Format: cell-based
# Set-up: expressed in transfected cells; host or cells: CV-1 African Green Monkey Kidney Cells
# REPORTED CONDITIONS: efficacy relative to control N-(3-((4-fluorophenyl)-(naphthalene-2-sulfonyl)-amino)propyl)-2,2-dimethylpropionamide
VALUE TYPE: LXRβ/LXRE Eff (%)

COMPOUND STRUCTURE STRING: COc1cccc(-c2cc(C(F)(F)F)c(C#N)c(=O)n2Cc2ccccc2)c1
REPORTED MEASUREMENT: 79
//
COMPOUND STRUCTURE STRING: N#Cc1c(C(F)(F)F)cc(-c2cccs2)n(Cc2ccccc2)c1=O
REPORTED MEASUREMENT: 82
//
COMPOUND STRUCTURE STRING: N#Cc1c(C(F)(F)F)cc(-c2ccccc2)n(N=C2CCCCC2)c1=O
REPORTED MEASUREMENT: 72
//
COMPOUND STRUCTURE STRING: Cc1ccc(Cn2c(-c3ccccc3)cc(C(F)(F)F)c(C#N)c2=O)o1
REPORTED MEASUREMENT: 93

* * *

# MEASURED ON: LXRβ (Homo sapiens)
# PROCEDURE SUMMARY: LXR/LXRE co-transfection assay (luciferase reporter, CV-1 cells)
# REPORTED CONDITIONS: CV-1 cells, agonism
# Procedure: To measure the ability of compounds to activate or inhibit the transcriptional activity of LXR, in a cell based assay, the cotransfection assay may be used. It has been shown that LXR functions as a heterodimer with RXR. […] Treatment of transfected cells with an LXR agonist increases the transcriptional activity of LXR, which is measured by an increase in luciferase activity. […] 1. […] Read plates immediately after addition of luciferase assay reagent. […]
VALUE TYPE: EC50 (nM)

COMPOUND STRUCTURE STRING: COc1cccc(-c2cc(C(F)(F)F)c(C#N)c(=O)n2Cc2ccccc2)c1
UNIT ANNOTATION: nM
EC50: 840

[P] Cc1ccc(Cn2c(-c3ccccc3)cc(C(F)(F)F)c(C#N)c2=O)o1
[Q] N#Cc1c(C(F)(F)F)cc(-c2ccccc2)n(N=C2CCCCC2)c1=O
[R] N#Cc1c(C(F)(F)F)cc(-c2cccs2)n(Cc2ccccc2)c1=O
Given 3 molecules, produce a descending ranking by EC50. Form entry: ranked labels (order as requested). Q, R, P
(Q: 4300 nM, R: 1800 nM, P: 810 nM)

* * *

# MEASURED ON: LXRα (Homo sapiens, UniProt Q13133)
# PROCEDURE SUMMARY: LXR/LXRE co-transfection assay (luciferase reporter, CV-1 cells)
# Assay type: cell-based
# Set-up: expressed in transfected cells; host or cells: CV-1 African Green Monkey Kidney Cells
# REPORTED CONDITIONS: efficacy relative to control N-(3-((4-fluorophenyl)-(naphthalene-2-sulfonyl)-amino)propyl)-2,2-dimethylpropionamide
VALUE TYPE: LXRα/LXRE Eff (%)

[I] N#Cc1c(C(F)(F)F)cc(-c2ccccc2)n(N=C2CCCCC2)c1=O
[II] N#Cc1c(C(F)(F)F)cc(-c2cccs2)n(Cc2ccccc2)c1=O
Given the listed items, does I or II have the lesser reported LXRα/LXRE Eff? Selection: enter the item's label. II
(II: 56%, I: 90%)
